Biological target: glutathione S-transferase (GST-GSH binding)
Experiment: GST–glutathione interaction disruption – biochemical, multiplex beads, flow cytometry, HPSMTB buffer, profiling panel (AID 1324);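 also: glutathione beads loaded with GST-green fluorescent protein and no fluorescent Bim peptide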
Settings: multiplex bead flow cytometry, MCF, concentration not given here
The source made the active and inactive calls. No rule for the calls is given here.
Endpoint name: percent span inhibition

Example compounds with recorded percent span inhibition:
{"Compound": "O=C(C1=C(Nc2ccccc2)c2ccccc2S(=O)(=O)N1)c1ccccc1", "percent span inhibition": "inactive"}
{"Compound": "CCOc1cc(/C=N/NC(N)=O)ccc1OCC(=O)Nc1ccc(C)c(C)c1", "percent span inhibition": "inactive"}
{"Compound": "N=C1C(c2nc3ccccc3s2)=C(O)CN1Cc1ccccc1", "percent span inhibition": "inactive"}
{"Compound": "Cc1nnc2ccc(-c3cccc(NC(=O)c4ccco4)c3)nn12", "percent span inhibition": "inactive"}
{"Compound": "Cc1ccc(SCCC(=O)Nc2ccc(Br)c(C)c2)cc1", "percent span inhibition": "inactive"}
{"Compound": "COC(=O)CSc1nccc(-c2cccs2)n1", "percent span inhibition": "inactive"}

Q: Which percent span inhibition value is on record for `COc1ccccc1-n1c(-c2cc(-c3ccc(F)cc3)n[nH]2)n[nH]c1=S` ?
Ans: inactive

Q: Look up percent span inhibition: `CCOc1ccc(C(=O)Nc2nnn(CC)n2)cc1`
Ans: inactive

Q: Can you share its percent span inhibition? I mean this compound: `CCCCC(=O)Nc1ccc(C(=O)N2CCC(C(=O)OCC)CC2)cc1`
Ans: inactive

Q: Entry CNC(CC(=O)c1ccc([N+](=O)[O-])cc1)C(Cl)(Cl)Cl (stereo unspecified) : reported percent span inhibition = ?
Ans: inactive

Q: Fill in: percent span inhibition of `CC(=O)N1CCN(C(=O)c2ccc(-n3c(C)ccc3C)cc2)CC1` is ___
Ans: inactive

Origin of values: PubChem BioAssay AID1324
